Biological target: MAGL (recombinant wild-type) (Homo sapiens, UniProt Q99685)
Assay: 4-NPA assay: MAGL hydrolysis of 4-nitrophenylacetate, absorbance at 405 nm
Conditions: footnote [b]: measured in 4-NPA assay
pIC50: −log10 of the molar value.
property label: pIC50

Before answering, review these 2 worked examples.
                                   compound  meas_value
0  O=C1CO[C@H]2CCN(C(=O)N3CCC4(CC3)CN(S(=O)(=O)c3ccc(F)cc3)CCO4)C[C@H]2N1 (racemic)        6.08
1  O=C1CO[C@H]2CCN(C(=O)N3CCC4(CC3)CN(S(=O)(=O)c3ccccc3)C4)C[C@H]2N1        6.22

[P] CC(C)(C)OC(=O)N1CC2(CCN(C(=O)N3CC[C@@H]4OCC(=O)N[C@@H]4C3)C2)C1 (racemic)
[Q] O=C1CO[C@H]2CCN(C(=O)N3CCC4(C3)CN(C(c3ccccc3)c3ccccc3)C4)C[C@H]2N1 (racemic)
# input # returns the entry with the larger pIC50; inputs P and Q Select an item and report its label.
# output P
(P: 6.27, Q: 5.57)

====

Target: MAGL (Homo sapiens, UniProt Q99685)
Test: 2-AG assay: MAGL hydrolysis of 2-arachidonoylglycerol to arachidonic acid, followed by mass spectrometry
Format: biochemical
Conditions: footnote [a]: measured in 2-AG assay
property label: IC50 (nM)

>>> print(df.to_string())
                                   compound  meas_value
0  O=C1CO[C@H]2CCN(C(=O)N3CC4(CC(Oc5ccc(OC(F)(F)F)cc5Cl)C4)C3)C[C@H]2N1         0.6
1  O=C1CO[C@H]2CCN(C(=O)N3CC4(CC(Oc5ccc(C(F)(F)F)c(C(F)(F)F)n5)C4)C3)C[C@H]2N1         4.8

[1] O=C1CO[C@H]2CCN(C(=O)N3CCC4(CCN(Cc5ccc(C(F)(F)F)cc5F)C4)C3)C[C@H]2N1 (stereo partly shown)
[2] O=C1CO[C@H]2CCN(C(=O)N3CCC4(CC3)CC(Oc3ccc(F)cc3Cl)C4)C[C@H]2N1
# input Hi! Which is lower in terms of IC50, the first one 1 or the second one 2 ? Your choice should be expressed through its label.
# output 2

====

Target: MAGL (Homo sapiens, UniProt Q99685)
Test: MAGL inhibition, Table 1 values with no assay marker (2-AG or 4-NPA assay not stated)
Format: biochemical
pIC50: −log10 of the molar value.
property label: pIC50

>>> df
                                   compound  meas_value
0  O=C1CO[C@H]2CCN(C(=O)N3CC4(CC(COc5ccc(F)cc5Cl)C4)C3)C[C@H]2N1        8.84
1  O=C1CO[C@H]2CCN(C(=O)N3CC4(C3)CN(c3cccc(C(F)(F)F)c3)C4)C[C@H]2N1        6.44
2  O=C1CO[C@H]2CCN(C(=O)N3CCC4(C3)CN(c3ccc(N5CCCC5=O)cc3)C4)C[C@H]2N1        5.64
3  O=C1CO[C@H]2CCN(C(=O)N3CC4(CC(Cc5ccc(C(F)(F)F)cc5F)C4)C3)C[C@H]2N1       10.52

[I] O=C1CO[C@H]2CCN(C(=O)N3CC4(CC(Cc5ccccc5O)C4)C3)C[C@H]2N1
[II] O=C1CO[C@H]2CCN(C(=O)N3CC4(CC(Cc5ccc(F)cc5F)C4)C3)C[C@H]2N1
# input Compare reported pIC50 values for I and II . Which is lower? Your answer should be the label attached to the chosen record.
# output I

====

Molecular target: MAGL (Homo sapiens, UniProt Q99685)
Test: 2-AG assay: MAGL hydrolysis of 2-arachidonoylglycerol to arachidonic acid, followed by mass spectrometry
Assay type: biochemical
Details: footnote [a]: measured in 2-AG assay
property label: IC50 (nM)

In [3]: df
Out[3]:
                                   molecule  meas_value
0  O=C1CO[C@H]2CCN(C(=O)N3CC4(CN(Cc5ccc(F)cc5Cl)C4)C3)C[C@H]2N1 [Example 11]        19.8

[I] O=C1CO[C@H]2CCN(C(=O)N3CC4(CN(Cc5ccc(C(F)(F)F)cc5F)C4)C3)C[C@H]2N1 [Example 12]
[II] O=C1CO[C@H]2CCN(C(=O)N3CCC4(CC3)CN(Cc3ccc(C(F)(F)F)cc3F)C4)C[C@H]2N1 [Example 13]
[III] O=C1CO[C@H]2CCN(C(=O)N3CC4(CC(Oc5ccc(Cl)cc5C(F)(F)F)C4)C3)C[C@H]2N1 [Example 7]
[IV] O=C1CO[C@H]2CCN(C(=O)N3CCC4(CC3)CC(NCc3ccc(F)cc3Cl)CO4)C[C@H]2N1 (single isomer, unassigned) [Example 35]
[V] O=C1CO[C@H]2CCN(C(=O)N3CCC4(CC3)CC(NCc3ccc(F)cc3Cl)CO4)C[C@H]2N1 (single isomer, unassigned) [Example 36]
# input Please give the order of these molecules when sorted by IC50, largest value leading. Your reply should list the labels following the order given in the request.
# output V, IV, II, I, III

====

Biological target: MAGL (Homo sapiens, UniProt Q99685)
Assay: 2-AG assay: MAGL hydrolysis of 2-arachidonoylglycerol to arachidonic acid, followed by mass spectrometry
Type: biochemical
Settings: footnote [a]: measured in 2-AG assay
pIC50: −log10 of the molar value.
property label: pIC50

In [3]: df
Out[3]:
                                   molecule  property_label  meas_value
0  O=C1CO[C@H]2CCN(C(=O)N3CC4(C3)CN(S(=O)(=O)c3ccc(F)cc3Cl)C4)C[C@H]2N1           pIC50        6.64
1  COc1ccc(C(F)(F)F)cc1OC1CC2(C1)CN(C(=O)N1CC[C@@H]3OCC(=O)N[C@@H]3C1)C2           pIC50        8.55
2  O=C1CO[C@H]2CCN(C(=O)N3CC4(CC(Oc5ccc(OC(F)(F)F)cc5F)C4)C3)C[C@H]2N1           pIC50        8.52
3  O=C1CO[C@H]2CCN(C(=O)N3CC4(CC(Oc5cc(F)cc(C(F)(F)F)c5)C4)C3)C[C@H]2N1           pIC50        7.90
4  O=C1CO[C@H]2CCN(C(=O)N3CCC4(CC3)CN(S(=O)(=O)c3ccc(C(F)(F)F)cc3)C4)C[C@H]2N1           pIC50        6.41

[I] O=C1CO[C@H]2CCN(C(=O)N3CCC4(CN(Cc5ccc(C(F)(F)F)cc5F)C4)C3)C[C@H]2N1
[II] CN(Cc1ccc(F)cc1Cl)C1COC2(CCN(C(=O)N3CC[C@@H]4OCC(=O)N[C@@H]4C3)CC2)C1 (single isomer, unassigned) [Example 33]
# input Record comparison, field pIC50: mark the lower of I and II . Lab log: write the label of the selected item as the result.
# output I

====

Biological target: MAGL (Homo sapiens, UniProt Q99685)
Sequence (Q99685 1-303): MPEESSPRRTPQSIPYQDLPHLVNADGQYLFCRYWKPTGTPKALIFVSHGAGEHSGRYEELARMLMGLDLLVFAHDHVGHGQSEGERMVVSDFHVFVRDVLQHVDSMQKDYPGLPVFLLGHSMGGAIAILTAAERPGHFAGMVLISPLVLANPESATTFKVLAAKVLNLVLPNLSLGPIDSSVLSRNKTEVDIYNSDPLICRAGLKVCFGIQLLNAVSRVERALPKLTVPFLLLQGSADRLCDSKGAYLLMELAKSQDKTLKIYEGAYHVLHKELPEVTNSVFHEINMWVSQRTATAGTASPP
Experiment: 2-AG assay: MAGL hydrolysis of 2-arachidonoylglycerol to arachidonic acid, followed by mass spectrometry
Format: biochemical
Conditions: footnote [a]: measured in 2-AG assay
Procedure: Alternatively, compounds were profiled for MAGL inhibitory activity by determining the enzymatic activity by following the hydrolysis of the natural substrate 2-arachidonoylglycerol resulting in arachidonic acid, which can be followed by mass spectrometry. […] The 2-AG assay was carried out in 384 well assay plates (PP, Greiner Cat #784201) in a total volume of 20 μL. […] The activity of the compounds was calculated based on the ratio of intensities [arachidonic acid/d8-arachidonic acid].
property label: IC50 (µM)

In [3]: df
Out[3]:
                                   compound                        target_system  output_unit  meas_value
0  O=C1CO[C@H]2CCN(C(=O)N3CCC4(CC3)C[C@@H](NS(=O)(=O)c3ccccc3)CO4)C[C@H]2N1 (mixture of isomers) [Example 18]  MAGL (Homo sapiens, UniProt Q99685)           µM       0.316
1  O=C1CO[C@H]2CCN(C(=O)N3CCC4(CC3)C[C@H](NS(=O)(=O)c3ccccc3)CO4)C[C@H]2N1 (mixture of isomers) [Example 19]  MAGL (Homo sapiens, UniProt Q99685)           µM       0.821
2  O=C1CO[C@H]2CCN(C(=O)N3CC4(CC(Oc5ccc(C(F)(F)F)cn5)C4)C3)C[C@H]2N1 [Example 25]  MAGL (Homo sapiens, UniProt Q99685)           µM      0.0289
3  O=C1CO[C@H]2CCN(C(=O)N3CC4(CC(Oc5ccc(C(F)(F)F)cc5F)C4)C3)C[C@H]2N1 [Example 3]  MAGL (Homo sapiens, UniProt Q99685)           µM      0.0023
4  O=C1CO[C@H]2CCN(C(=O)N3CCC4(CC3)CC(NCc3ccc(F)cc3Cl)CO4)C[C@H]2N1 (mixture of isomers) [Example 38]  MAGL (Homo sapiens, UniProt Q99685)           µM       0.416
5  O=C1CO[C@H]2CCN(C(=O)N3CC4(CC(Oc5ccc(F)cc5Cl)C4)C3)C[C@H]2N1 (stereo in doubt) [Example 41]  MAGL (Homo sapiens, UniProt Q99685)           µM       0.466

[I] O=C1CO[C@H]2CCN(C(=O)N3CCC4(CC3)CC(NS(=O)(=O)c3ccc(F)cc3Cl)CO4)C[C@H]2N1 (stereo in doubt) [Example 31]
[II] O=C1CO[C@H]2CCN(C(=O)N3CC4(C3)CN(S(=O)(=O)c3ccc(C(F)(F)F)cc3F)C4)C[C@H]2N1 [Example 17]
# input Lab note: check whether I or II shows the higher recorded IC50. Which one? Tell me its label.
# output II

[a] O=C1CO[C@H]2CCN(C(=O)N3CCC4(CC3)CC(NS(=O)(=O)c3ccc(C(F)(F)F)cc3)CO4)C[C@H]2N1 (stereo in doubt) [Example 29]
[b] CN([C@H]1COC2(CCN(C(=O)N3CC[C@@H]4OCC(=O)N[C@@H]4C3)CC2)C1)S(=O)(=O)c1ccc(F)cc1Cl [Example 24]
# input So which one has the bigger IC50 here, a or b ? I would appreciate it if you answered with the label of your choice.
# output a
(a: 0.0475 µM, b: 0.0209 µM)

[A] CN([C@H]1COC2(CCN(C(=O)N3CC[C@@H]4OCC(=O)N[C@@H]4C3)CC2)C1)S(=O)(=O)c1ccccc1 [Example 30]
[B] O=C1CO[C@H]2CCN(C(=O)N3CCC4(CC3)CC(NS(=O)(=O)c3cccc(C(F)(F)F)c3)CO4)C[C@H]2N1 (stereo in doubt) [Example 32]
# input Recorded IC50 values differ for A and B ; which one is higher? Respond using the label that marks the chosen record.
# output B
(B: 0.124 µM, A: 0.0493 µM)

Just for reference, patent US12577257B2 is where these values come from.
